Tested on: vRNP nuclear export (viral NP protein), WSN/H1N1
Format: cell-based, influenza A virus
attributeMeasured: nuclear retention of the viral NP protein (vRNPs)

INSERT INTO assay_data (molecule, systemundertest, result) VALUES
  ('CC(=O)O[C@@H]1[C@@H](OC(C)=O)[C@@H](O)[C@H](Oc2c(-c3ccc(O)cc3)oc3cc(O)cc(O)c3c2=O)O[C@H]1C [SL0101-1]', 'vRNP nuclear export (viral NP protein), WSN/H1N1', 'nuclear retention'),
  ('O=C(O)c1ccc(F)c(F)c1Nc1ccc(I)cc1Cl [ATR-002]', 'vRNP nuclear export (viral NP protein), WSN/H1N1', 'nuclear retention');
